Source: paper PMC8234359

protocol.details: Relative Exposure (RE10/2/72h): ratio of AUC immersion to AUC IY microinjection
Type: in vivo, zebrafish (Danio rerio)
cond: zebrafish, in vivo
test.readout: RE-WB (Relative Exposure RE-WB10/2/72h)

Below, 3 molecules whose answers are already recorded.
molecule | endpoint.value
C#CCNC(=O)CCCCCN1C(=CC=CC2=[N+](C)c3ccccc3C2(C)C)C(C)(C)c2ccccc21.[Cl-] [CY3A, Cyanine 3] | 1.11
C#CCNC(=O)CCCCCN1C(=CC=CC2=[N+](C)c3ccc(S(=O)(=O)[O-])cc3C2(C)C)C(C)(C)c2cc(S(=O)(=O)[O-])ccc21.[K+] [S-CY3A, S-Cyanine 3] | 0.15
C#CCNC(=O)c1ccc2c(c1)C(=O)OC21c2ccc(O)cc2Oc2cc(O)ccc21 [FAMA, Fam A, 5-Isomer] | 0.05

Note: attention shifts to another entry.
The molecule identified as C#CCNC(=O)CCCCC[N+]1=C(C=CC=CC=C2N(C)c3ccc4c(S(=O)(=O)[O-])cc(S(=O)(=O)[O-])cc4c3C2(C)C)C(C)(C)c2c1ccc1c(S(=O)(=O)[O-])cc(S(=O)(=O)[O-])cc21.[K+].[K+].[K+] [S-CY5.5A, S-Cyanine 5.5] registered its RE-WB (Relative Exposure RE-WB10/2/72h) at 0

---

protocol.details: Intrayolk (IY) microinjection of two-cell stage zebrafish embryos (2 mg/kg), spatiotemporal fluorescence imaging and non-compartmental AUC
Format: in vivo, zebrafish (Danio rerio)
cond: ratio of AUCRoB to AUCWB after microinjection into the yolk (2 mg/kg), 0.25–72 h
test.readout: RD (IY), Relative Distribution

Study these solved cases before continuing.
compound | test.readout | endpoint.value
C#CCNC(=O)c1ccc(-c2c3ccc(=[N+](C)C)cc-3oc3cc(N(C)C)ccc23)c(C(=O)[O-])c1 (single isomer, unassigned) | RD (IY), Relative Distribution | 0.28
C#CCNC(=O)CCCCCN1C(=CC=CC2=[N+](C)c3ccccc3C2(C)C)C(C)(C)c2ccccc21.[Cl-] | RD (IY), Relative Distribution | 0.17
C#CCNC(=O)c1ccc2c(c1)C(=O)OC21c2ccc(O)cc2Oc2cc(O)ccc21 [FAMA, Fam A, 5-Isomer] | RD (IY), Relative Distribution | 0.32
C#CCNC(=O)CCCCC[N+]1=C(C=CC=CC=C2N(C)c3ccc4c(S(=O)(=O)[O-])cc(S(=O)(=O)[O-])cc4c3C2(C)C)C(C)(C)c2c1ccc1c(S(=O)(=O)[O-])cc(S(=O)(=O)[O-])cc21.[K+].[K+].[K+] | RD (IY), Relative Distribution | 0.19

# context switch: different compound, same RD (IY), Relative Distribution
Form field RD (IY), Relative Distribution, entry C#CCNC(=O)CCCCCN1C(=CC=CC2=[N+](C)c3ccc(S(=O)(=O)[O-])cc3C2(C)C)C(C)(C)c2cc(S(=O)(=O)[O-])ccc21.[K+] : 0.24

---

protocol.details: Intrayolk (IY) microinjection of two-cell stage zebrafish embryos (2 mg/kg), spatiotemporal fluorescence imaging and non-compartmental AUC
Type: in vivo, zebrafish (Danio rerio)
cond: yolk, intrayolk microinjection 2 mg/kg, 0.25 to 72 h
test.readout: AUC-Yolk IY (AUC0.25–72h) (RFU × 10^7)
Kindly answer with a numeric value in RFU × 10^7, unit omitted.

compound | endpoint.value
C#CCNC(=O)CCCCCN1C(=CC=CC2=[N+](C)c3ccc(S(=O)(=O)[O-])cc3C2(C)C)C(C)(C)c2cc(S(=O)(=O)[O-])ccc21.[K+] [S-CY3A, S-Cyanine 3] | 23.8

Entry C#CCNC(=O)CCCCC[N+]1=C(C=CC=CC=C2N(C)c3ccc4c(S(=O)(=O)[O-])cc(S(=O)(=O)[O-])cc4c3C2(C)C)C(C)(C)c2c1ccc1c(S(=O)(=O)[O-])cc(S(=O)(=O)[O-])cc21.[K+].[K+].[K+] [S-CY5.5A, S-Cyanine 5.5] — recorded AUC-Yolk IY (AUC0.25–72h) = 4.42

AUC-Yolk IY (AUC0.25–72h) measured on C#CCNC(=O)c1ccc2c(c1)C(=O)OC21c2ccc(O)cc2Oc2cc(O)ccc21 [FAMA, Fam A, 5-Isomer] = 14.9

Just so you know, measured AUC-Yolk IY (AUC0.25–72h) for C#CCNC(=O)CCCCCN1C(=CC=CC2=[N+](C)c3ccccc3C2(C)C)C(C)(C)c2ccccc21.[Cl-] [CY3A, Cyanine 3] came out at 15.7

response.value for C#CCNC(=O)c1ccc(-c2c3ccc(=[N+](C)C)cc-3oc3cc(N(C)C)ccc23)c(C(=O)[O-])c1 (single isomer, unassigned) [TAMRA] (field: AUC-Yolk IY (AUC0.25–72h)) = 29.1

---

protocol.details: Immersion of two-cell stage zebrafish embryos (10 µM), spatiotemporal fluorescence imaging and non-compartmental AUC
Assay type: in vivo, zebrafish (Danio rerio)
cond: rest of body (non-yolk), immersion 10 µM, 0.25 to 72 h
# if value of AUC-RoB IMM (AUC0.25–72h) reaches 3 RFU × 10^7, tag T; if it stays below, tag F

compound | class.label
C#CCNC(=O)CCCCC[N+]1=C(C=CC=CC=C2N(C)c3ccc4c(S(=O)(=O)[O-])cc(S(=O)(=O)[O-])cc4c3C2(C)C)C(C)(C)c2c1ccc1c(S(=O)(=O)[O-])cc(S(=O)(=O)[O-])cc21.[K+].[K+].[K+] [S-CY5.5A, S-Cyanine 5.5] | F

In: Confirm if AUC-RoB IMM (AUC0.25–72h) reported for the compound C#CCNC(=O)CCCCCN1C(=CC=CC2=[N+](C)c3ccccc3C2(C)C)C(C)(C)c2ccccc21.[Cl-] [CY3A, Cyanine 3] is 3 RFU × 10^7 or above.
Out: T

In: Record C#CCNC(=O)c1ccc(-c2c3ccc(=[N+](C)C)cc-3oc3cc(N(C)C)ccc23)c(C(=O)[O-])c1 (single isomer, unassigned) [TAMRA] ; criterion: AUC-RoB IMM (AUC0.25–72h) no lower than 3 RFU × 10^7. Met?
Out: F

In: I'd appreciate it if you could say whether C#CCNC(=O)c1ccc2c(c1)C(=O)OC21c2ccc(O)cc2Oc2cc(O)ccc21 [FAMA, Fam A, 5-Isomer] has AUC-RoB IMM (AUC0.25–72h) at least equal to 3 RFU × 10^7.
Out: F

In: Identify whether the reported AUC-RoB IMM (AUC0.25–72h) of the following compound is 3 RFU × 10^7 or greater: C#CCNC(=O)CCCCCN1C(=CC=CC2=[N+](C)c3ccc(S(=O)(=O)[O-])cc3C2(C)C)C(C)(C)c2cc(S(=O)(=O)[O-])ccc21.[K+] [S-CY3A, S-Cyanine 3]
Out: F

---

protocol.details: Intrayolk (IY) microinjection of two-cell stage zebrafish embryos (2 mg/kg), spatiotemporal fluorescence imaging and non-compartmental AUC
Type: in vivo, zebrafish (Danio rerio)
cond: whole body, intrayolk microinjection 2 mg/kg, 0.25 to 72 h
test.readout: AUC-WB IY (AUC0.25–72h) (RFU × 10^7)
Unit RFU × 10^7 implied. Number only.

Answered cases to consult:
compound | endpoint.value
C#CCNC(=O)c1ccc(-c2c3ccc(=[N+](C)C)cc-3oc3cc(N(C)C)ccc23)c(C(=O)[O-])c1 (single isomer, unassigned) [TAMRA] | 40.4
C#CCNC(=O)CCCCCN1C(=CC=CC2=[N+](C)c3ccccc3C2(C)C)C(C)(C)c2ccccc21.[Cl-] [CY3A, Cyanine 3] | 18.9
C#CCNC(=O)CCCCCN1C(=CC=CC2=[N+](C)c3ccc(S(=O)(=O)[O-])cc3C2(C)C)C(C)(C)c2cc(S(=O)(=O)[O-])ccc21.[K+] [S-CY3A, S-Cyanine 3] | 31.4

Pending compound:
# AUC-WB IY (AUC0.25–72h) (compound: C#CCNC(=O)CCCCC[N+]1=C(C=CC=CC=C2N(C)c3ccc4c(S(=O)(=O)[O-])cc(S(=O)(=O)[O-])cc4c3C2(C)C)C(C)(C)c2c1ccc1c(S(=O)(=O)[O-])cc(S(=O)(=O)[O-])cc21.[K+].[K+].[K+] [S-CY5.5A, S-Cyanine 5.5] ) is 5.45

---

protocol.details: Immersion of two-cell stage zebrafish embryos (10 µM), spatiotemporal fluorescence imaging and non-compartmental AUC
Type: in vivo, zebrafish (Danio rerio)
cond: whole body, immersion 10 µM, 0.25 to 72 h
// boundary case: AUC-WB IMM (AUC0.25–72h) equal to 5 RFU × 10^7 maps to Condition not met; strictly smaller maps to Condition met

In: Answer whether the molecule C#CCNC(=O)CCCCC[N+]1=C(C=CC=CC=C2N(C)c3ccc4c(S(=O)(=O)[O-])cc(S(=O)(=O)[O-])cc4c3C2(C)C)C(C)(C)c2c1ccc1c(S(=O)(=O)[O-])cc(S(=O)(=O)[O-])cc21.[K+].[K+].[K+] [S-CY5.5A, S-Cyanine 5.5] has AUC-WB IMM (AUC0.25–72h) strictly less than 5 RFU × 10^7
Out: Condition met

In: Please determine if C#CCNC(=O)c1ccc2c(c1)C(=O)OC21c2ccc(O)cc2Oc2cc(O)ccc21 [FAMA, Fam A, 5-Isomer] is below 5 RFU × 10^7 in terms of AUC-WB IMM (AUC0.25–72h).
Out: Condition met

In: Identify whether the molecule C#CCNC(=O)c1ccc(-c2c3ccc(=[N+](C)C)cc-3oc3cc(N(C)C)ccc23)c(C(=O)[O-])c1 (single isomer, unassigned) [TAMRA] records AUC-WB IMM (AUC0.25–72h) below 5 RFU × 10^7.
Out: Condition not met

In: Bench note: check whether C#CCNC(=O)CCCCCN1C(=CC=CC2=[N+](C)c3ccccc3C2(C)C)C(C)(C)c2ccccc21.[Cl-] [CY3A, Cyanine 3] shows AUC-WB IMM (AUC0.25–72h) below 5 RFU × 10^7
Out: Condition not met

In: State whether 5 RFU × 10^7 exceeds AUC-WB IMM (AUC0.25–72h) recorded for C#CCNC(=O)CCCCCN1C(=CC=CC2=[N+](C)c3ccc(S(=O)(=O)[O-])cc3C2(C)C)C(C)(C)c2cc(S(=O)(=O)[O-])ccc21.[K+] [S-CY3A, S-Cyanine 3] .
Out: Condition met
